Biological target: PD-L1 protein on the surface of MC38-hPDL1 tumor cells (Homo sapiens, UniProt Q9NZQ7)
Construct: expressed in transfected cells; host or cells: MC38-hPDL1 (mouse colon cancer cells)
Sequence (Q9NZQ7 19-290): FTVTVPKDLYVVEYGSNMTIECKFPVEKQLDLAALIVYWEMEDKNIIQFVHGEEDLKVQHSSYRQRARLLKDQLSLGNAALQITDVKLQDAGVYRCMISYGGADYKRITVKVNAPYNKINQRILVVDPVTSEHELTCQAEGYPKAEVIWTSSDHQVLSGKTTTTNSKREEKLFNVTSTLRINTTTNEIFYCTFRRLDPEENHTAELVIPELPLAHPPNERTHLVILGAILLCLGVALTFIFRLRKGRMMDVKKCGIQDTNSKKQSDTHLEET
Test: Induction of endocytosis of PD-L1 on the surface of tumor cells (flow cytometry)
Type: cell-based
Details: MC38-hPDL1 cells, 16 hours incubation; read-out: MC38 maximum endocytosis rate
QUANTITY NAME: Emax (%)

CCn1c(C(=O)Nc2cccc(-c3cccc(-c4ccc(CN5CC6(COC6)C5)c(OC)n4)c3Cl)c2Cl)nc2c1CCN(C)C2 : 94
COc1nc(-c2cccc(-c3cccc(NC(=O)c4nc5c(n4C)CCN(C)C5)c3Cl)c2Cl)ccc1CN1CC[C@H]1CO : 94
COc1nc(-c2cccc(-c3cccc(NC(=O)c4nc5c(n4C)CCN(C)C5)c3Cl)c2Cl)ccc1CN1CC2(C1)CN(C(=O)C(F)F)C2 : 97
COc1ccnc(NCc2cnc(C(=O)Nc3cccc(-c4cccc(NC(=O)c5nc6c(n5C)CCN(C)C6)c4Cl)c3C)cc2OC)c1 : 84
CCn1c(C(=O)Nc2cccc(-c3cccc(-c4ccc(CN5CC(C(=O)O)C5)c(OC)n4)c3Cl)c2Cl)nc2c1CCN(C)C2 : 97
COc1nc(-c2cccc(-c3cccc(NC(=O)c4nc5c(n4C4CC4)CCN(C)C5)c3Cl)c2Cl)ccc1CN1CC2(C1)CN(C(C)=O)C2 : 91
COc1nc(-c2cccc(-c3cccc(NC(=O)c4nc5c(n4C)CCN(C)C5)c3Cl)c2Cl)ccc1CN1CCCC[C@H]1C(=O)O : 95
COc1cc(C(=O)Nc2cccc(-c3cccc(NC(=O)c4nc5c(n4C)CCN(C)C5)c3Cl)c2C)ncc1CNc1ccc(C)nc1 : 83
COc1nc(-c2cccc(-c3cccc(NC(=O)c4nc5c(n4C)CCN(C)C5)c3Cl)c2Cl)ccc1CN[C@@H]1CCOC[C@@H]1F : 93
COc1nc(-c2cccc(-c3cccc(NC(=O)c4nc5c(n4C)CCN(C)C5)c3Cl)c2Cl)ccc1CN1CC2(CCN(C(C)=O)CC2)C1 : 96
COc1nc(-c2cccc(-c3cccc(NC(=O)c4nc5c(n4C)CCN(C)C5)c3Cl)c2Cl)ccc1CNC[C@@H](C)O : 98
COc1nc(-c2cccc(-c3cccc(NC(=O)c4nc5c(n4C)CCN(C)C5)c3Cl)c2Cl)ccc1CNC1COC1 : 95
COc1nc(-c2cccc(-c3cccc(NC(=O)c4nc5c(n4C)CCN(C)C5)c3Cl)c2Cl)ccc1CN1CC2(CC(O)C2)C1 : 97
COc1nc(-c2cccc(-c3cccc(NC(=O)c4nc5c(n4C)CCN(C)C5)c3Cl)c2Cl)ccc1CN1CC2(C1)CN(C(=O)C(F)(F)F)C2 : 96
COc1cc(C(=O)Nc2cccc(-c3cccc(NC(=O)c4nc5c(n4C)CCN(C)C5)c3Cl)c2C)ncc1CNCC1(F)CCOCC1 : 85

* * *

Biological target: human PD-L1 protein (Homo sapiens, UniProt Q9NZQ7)
Construct: purchased Acro Biosystems PD1-H5229
Assay: Thermal shift: melting temperature of PD-L1 protein
Type: binding
Settings: compound 10 μM, PD-L1 protein 2 μM, Tm minus DMSO vehicle control; read-out: ΔTm (° C.)
Method: Test Embodiment 4. Test of Combination of the Compounds of the Present Disclosure to Improve the Stability (Melting Temperature) of PD-L1 Protein Experimental purpose: To test the ability of compounds to enhance the stability of PD-L1 protein and increase the melting temperature of the protein. Experimental method: […] A solution containing […] HEPES, SYPRO Orange, and 150 mM NaCl was prepared as experimental buffer, and human PD-L1 protein was added at a final concentration of 2 μM. […]
QUANTITY NAME: ΔTm at 10 µM (°C)

COc1nc(-c2cccc(-c3cccc(NC(=O)c4nc5c(n4C)CCN(C)C5)c3Cl)c2Cl)ccc1CN1CCN(C(=O)C2CC2)CC1 : 12.5
COc1nc(-c2cccc(-c3cccc(NC(=O)c4nc5c(n4C)CCN(C)C5)c3Cl)c2Cl)ccc1CN1CC(OC(C)=O)C1 : 14.8
COc1nc(-c2cccc(-c3cccc(NC(=O)c4nc5c(n4C)CCN(C)C5)c3Cl)c2Cl)ccc1CN1CC2(C1)CN(C(=O)CC#N)C2 : 11.7
CNC(=O)CNCc1cnc(C(=O)Nc2cccc(-c3cccc(NC(=O)c4nc5c(n4C)CCN(C)C5)c3Cl)c2C)cc1OC : 14.4
COc1nc(-c2cccc(-c3cccc(NC(=O)c4nc5c(n4C)CCN(C)C5)c3Cl)c2Cl)ccc1CN1CC(C(=O)N(C)C)C1 : 21
COc1nc(-c2cccc(-c3cccc(NC(=O)c4nc5c(n4C)CCN(C)C5)c3Cl)c2Cl)ccc1CN1CC(NC(C)=O)C1 : 20.6
CCn1c(C(=O)Nc2cccc(-c3cccc(-c4ccc(CN5CC(C(=O)O)C5)c(OC)n4)c3Cl)c2Cl)nc2c1CCN(C)C2 : 13
COc1nc(-c2cccc(-c3cccc(NC(=O)c4nc5c(n4C)CCN(C)C5)c3Cl)c2Cl)ccc1CN1CCC2(CC1)CN(C(C)=O)C2 : 16

* * *

Assay: Pharmacokinetics test in Balb/C mice
Assay type: in vivo
Conditions: male, mouse, po, p.o. 5 mg/kg, plasma, read-out: Average residence time MRT0−∞
QUANTITY NAME: MRT inf (h)

Example entries and their recorded answers appear below.
COc1nc(-c2cccc(-c3cccc(NC(=O)c4nc5c(n4C)CCN(C)C5)c3Cl)c2Cl)ccc1CN1CC(NC(C)=O)C1 : 12.9
COc1nc(-c2cccc(-c3cccc(NC(=O)c4nc5c(n4C)CCN(C)C5)c3Cl)c2Cl)ccc1CN1CC2(COC2)C1 : 25
COc1nc(-c2cccc(-c3cccc(NC(=O)c4nc5c(n4C)CCN(C)C5)c3Cl)c2Cl)ccc1CN[C@@H]1CCCC[C@@H]1O : 21.6
COc1nc(-c2cccc(-c3cccc(NC(=O)c4nc5c(n4C)CCN(C)C5)c3Cl)c2Cl)ccc1CN1CC2(CC(NC(C)=O)C2)C1 : 20.8
COc1nc(-c2cccc(-c3cccc(NC(=O)c4nc5c(n4C)CCN(C)C5)c3Cl)c2Cl)ccc1CN1CC(C(=O)N(C)C)C1 : 16.8

(A) COc1nc(-c2cccc(-c3cccc(NC(=O)c4nc5c(n4C)CCN(C)C5)c3Cl)c2Cl)ccc1CN1CC2(CCC(=O)N2)C1
(B) COc1nc(-c2cccc(-c3cccc(NC(=O)c4nc5c(n4C)CCN(C)C5)c3Cl)c2Cl)ccc1CNC[C@H](C)O
**Query** In terms of reported MRT inf, does A or B have the smaller number? Give the label under which the chosen entry appears.
**Result** A
(A: 12.3 h, B: 69 h)

* * *

Biological target: human PD-1/PD-L1 binding (Homo sapiens)
Construct: PD-L1-His protein (19 to 238 amino acids) (Abcam #ab167713); purchased Abcam (PD-L1-His); R&D (PD-1-Fc) ab167713; 1086-PD
Assay: Inhibition of human PD-1/PD-L1 binding (TR-FRET/HTRF)
Settings: TR-FRET, PD-L1-His and PD-1-Fc; read-out: PD-1/PD-L1 binding IC50
pIC50: −log10 of the molar value.
QUANTITY NAME: pIC50

COc1nc(C(=O)Nc2cccc(-c3cccc(NC(=O)c4nc5c(n4C)CCN(C)C5)c3Cl)c2C)ccc1CN[C@@H](C)CO : 8.39
Cc1c(NC(=O)c2ccc(CN3CC[C@@H](F)C3)cn2)cccc1-c1cccc(NC(=O)c2nc3c(n2C)CCN(C)C3)c1Cl : 8.19
COc1nc(-c2cccc(-c3cccc(NC(=O)c4nc5c(n4C)CCN(C)C5)c3Cl)c2Cl)ccc1CN1CC(O)C1 : 8.54
COc1nc(-c2cccc(-c3cccc(NC(=O)c4nc5c(n4C)CCN(C)C5)c3Cl)c2Cl)ccc1CN1CC(CO)C1 : 8.30
COc1cc(C(=O)Nc2cccc(-c3cccc(NC(=O)c4nc5c(n4C)CCN(C)C5)c3Cl)c2C)ncc1CO : 8.29

* * *

Biological target: human PD-L1 protein (Homo sapiens, UniProt Q9NZQ7)
Construct: purchased Acro Biosystems PD1-H5229
Experiment: Thermal shift: melting temperature of PD-L1 protein
Format: binding
Conditions: compound 10 μM, PD-L1 protein 2 μM, Tm minus DMSO vehicle control; read-out: ΔTm (° C.)
QUANTITY NAME: ΔTm at 10 µM (°C)

A selection of reference data follows.
COc1nc(-c2cccc(-c3cccc(NC(=O)c4nc5c(n4C)CCN(C)C5)c3Cl)c2Cl)ncc1CN1CC(NC(C)=O)C1 : 11.3
COc1nc(-c2cccc(-c3cccc(NC(=O)c4nc5c(n4C)CCN(C)C5)c3Cl)c2Cl)ccc1CN1CC2(C1)CN(C(=O)C1CC1)C2 : 21.1
COc1nc(-c2cccc(-c3cccc(NC(=O)c4nc5c(n4C)CCN(C)C5)c3Cl)c2Cl)ccc1CN1CCN(C(=O)C(C)C)CC1 : 11.4
COc1nc(-c2cccc(-c3cccc(NC(=O)c4nc5c(n4C)CCN(C)C5)c3Cl)c2Cl)ccc1CN[C@H]1CCOC[C@@H]1O (relative stereo) : 18
COc1nc(-c2cccc(-c3cccc(NC(=O)c4nc5c(n4C)CCN(C)C5)c3Cl)c2Cl)ccc1CNCC(=O)O : 14

(a) COc1cc(-c2cccc(-c3cccc(NC(=O)c4nc5c(n4C)CCN(C)C5)c3Cl)c2Cl)ccc1CNC[C@@H](C)O
(b) COc1nc(-c2cccc(-c3cccc(NC(=O)c4nc5c(n4C)CCN(C)C5)c3Cl)c2Cl)cnc1CN1CC2(C1)CN(C(C)=O)C2
**Query** Consider a and b . Which of these has its ΔTm at 10 µM at a higher number? Response format: the label of the selected entry.
**Result** b
(b: 16.8 °C, a: 10.3 °C)
